# koff values compiled below
# system name: T1, hu4-1BB-Fc (R&D Systems) (human, UniProt Q07011 24-186)
# T1 construct: Bought; also called human 4-1BB; not shown: human IgG Fc of the bought fusion
# procedure details: SPR (Biacore 8K), hu4-1BB-Fc captured by anti-human IgG Fc; apparent value, 1:1 fit
Use s⁻¹ as the unit, but write only the number.

Examples with their reported koff follow.
Ask: Entry under review: multimeric protein SEQ ID NO: 39 (designed binder) QDSTSDLIPAPPLSKVPLQQNFQDNQFHGKWYVVGQAGNIRLREDKDPIKMMATIYELKEDKSYDVTMVKFDDKKCMYDIWTFVPGSQPGEFTLGKIKSFPGHTSSLVRVVSTNYNQHAMVFFKFVFQNREEFYITLYGRTKELTSELKENFIRFSKSLGLPENHIVFPVPIDQCIDGGGGGSGVRLWATRQAMLGQVHEVPEGWLIFVAEQEELYVRVQNGFRKVQLEARTPLGGSGGAPEQKLISEEDLGSHHHHHHHHHH . Reported koff?
Reply: 2.63e-05

Ask: Now consider 4-1BB-specific lipocalin mutein SEQ ID NO: 64 (designed binder, Monomeric hNGAL mutein; also called 4-1BB-targeting lipocalin mutein as included in the multimeric proteins) QDSTSDLIPAPPLSKVPLQQNFQDNQFHGKWYVVGQAGNIRLREDKDPIKMMATIYELKEDKSYDVTMVKFDDKKCMYDIWTFVPGSQPGEFTLGKIKSFPGHTSSLVRVVSTNYNQHAMVFFKFVFQNREEFYITLYGRTKELTSELKENFIRFSKSLGLPENHIVFPVPIDQCIDG .
Reply: 7.08e-05

Attention now shifts to the item below.
Ask: Entry under review: multimeric protein SEQ ID NO: 47 (designed binder) QDSTSDLIPAPPLSKVPLQQNFQDNQFHGKWYVVGQAGNIRLREDKDPIKMMATIYELKEDKSYDVTMVKFDDKKCMYDIWTFVPGSQPGEFTLGKIKSFPGHTSSLVRVVSTNYNQHAMVFFKFVFQNREEFYITLYGRTKELTSELKENFIRFSKSLGLPENHIVFPVPIDQCIDGGGGGSGGGGSGGGGSKPLDGEYFTLQIRGRERFEMFRELNEALELKDAQAGKEPGGSGGAPEQKLISEEDLGSHHHHHHHHHH . Reported koff?
Reply: 6.52e-05
